- Test system: neonatal cardiomyocytes
- method.description: Myocyte calcium-contractility assay (cardiomyocyte beating anoxia assay)
- Type: cell-based, rat
- condition.label: at dose for max. activity; 16 hr anoxia, 2 hr reoxygenation, Fluo-4 fluorescence
measure: Percent Activity

INSERT INTO assay_data (molecule, system_under_test, measure, reported_result) VALUES
  ('CC(=O)O[C@@H]1OC=C2[C@@H](OC(C)=O)C[C@H]3[C@]4(C)CC[C@@H]5C([C@H](C)CCC5(C)C)[C@H]4C[C@@H](O)[C@]3(C)[C@H]21 (some centres unmarked)', 'neonatal cardiomyocytes', 'Percent Activity', 'No activity at 100 μg/mL'),
  ('CC(C)=CCC[C@@]1(C)CCC[C@]2(C)[C@@H](Cc3cc(C(=O)O)ccc3O)C(C)=CC[C@@H]12 [(−)-jaspic acid (4)]', 'neonatal cardiomyocytes', 'Percent Activity', '59%'),
  ('CC1CCC2C(=CCCC2(C)C)C1(C)CCC(CO)CCCc1ccoc1 (centres unmarked) [Halisulfate 7 alcohol (8)]', 'neonatal cardiomyocytes', 'Percent Activity', 'No activity at 75 μg/mL'),
  ('CC(C)=CCC/C(C)=C/CCC1=CC(=O)OC1O (racemic)', 'neonatal cardiomyocytes', 'Percent Activity', 'No activity at 100 μg/mL'),
  ('CC(C)=CCC/C(C)=C/CCC1=CC(O)OC1=O (racemic)', 'neonatal cardiomyocytes', 'Percent Activity', '46%'),
  ('CC1=C(CC/C(C)=C/Cc2cc(C(=O)O)ccc2O)[C@]2(C)CCCC(C)(C)[C@H]2CC1 [(−)-subersic acid (1)]', 'neonatal cardiomyocytes', 'Percent Activity', '61%'),
  ('CC1=C(CC/C(C)=C/CC/C(C)=C/Cc2cc(O)ccc2O)C(C)(C)CCC1', 'neonatal cardiomyocytes', 'Percent Activity', 'No activity at 75 μg/mL'),
  ('CC1=CCC[C@H](C)[C@]1(C)CC/C(C)=C/CCc1ccoc1 [(+)-subersin (2)]', 'neonatal cardiomyocytes', 'Percent Activity', '78%');
